Target: murine mastocytoma P815 cells overexpressing hTDO2 (Homo sapiens, UniProt P48775)
Assay: Cellular assay for TDO2 activity determination
Details: P815 cells overexpressing hTDO2, overnight incubation at 37° C., kynurenine absorbance at 480 nm
pIC50: −log10 of the molar value.
Readout kind: pIC50

>>> result("O=S1(=O)CCC(Cn2cc(-c3c[nH]c4cc(F)ccc34)cn2)CC1")
"5.00 to 6.00"

Moving on to the next compound.
input: Fill in: pIC50 of Fc1ccc2c(-c3cn[nH]c3)c[nH]c2c1 is ___
output: > 6.00

---

Biological target: human recombinant TDO2 enzyme (Homo sapiens, UniProt P48775)
Sequence (P48775 whole entry): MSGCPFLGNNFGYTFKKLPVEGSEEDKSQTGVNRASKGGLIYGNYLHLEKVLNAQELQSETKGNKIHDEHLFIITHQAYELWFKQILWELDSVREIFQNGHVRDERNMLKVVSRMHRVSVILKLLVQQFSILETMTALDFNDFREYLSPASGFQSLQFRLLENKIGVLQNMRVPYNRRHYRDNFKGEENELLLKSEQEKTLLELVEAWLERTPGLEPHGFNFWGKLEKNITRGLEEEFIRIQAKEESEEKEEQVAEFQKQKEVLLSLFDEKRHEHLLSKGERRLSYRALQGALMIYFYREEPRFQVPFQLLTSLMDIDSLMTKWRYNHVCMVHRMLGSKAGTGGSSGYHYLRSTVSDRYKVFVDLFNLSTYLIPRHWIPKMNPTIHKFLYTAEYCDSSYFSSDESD
Test: Assay for TDO2 enzymatic activity determination
Details: human recombinant TDO2, L-Trp 1 mM, room temperature one hour, kynurenine absorbance at 480 nm
pIC50: −log10 of the molar value.
The molecules listed here are annotated with their pIC50.

Recorded pIC50, per entry:
>>> result("O=C(O)Cn1cc(-c2c[nH]c3cc(F)ccc23)cn1")
"4.00 to 5.00"
>>> result("CCC(=O)N1CCC(n2cc(-c3c[nH]c4cc(F)ccc34)cn2)CC1")
"5.00 to 6.00"
>>> result("Fc1ccc2c(-c3cnn(C4CNC4)c3)c[nH]c2c1")
"> 6.00"
>>> result("O=S1(=O)CCC(Cn2cc(-c3c[nH]c4cc(F)ccc34)cn2)CC1")
"5.00 to 6.00"

Moving on to the next molecule.
input: Fill in: pIC50 of CNC(=O)N1CC(n2cc(-c3c[nH]c4cc(F)ccc34)cn2)C1 is ___
output: 5.00 to 6.00

Attribution: patent US9126984B2
